Molecular target: PABPC1 (residues 1-383) (Homo sapiens, UniProt P11940 P11940:1-383)
Sequence (P11940 1-383, one chain of several): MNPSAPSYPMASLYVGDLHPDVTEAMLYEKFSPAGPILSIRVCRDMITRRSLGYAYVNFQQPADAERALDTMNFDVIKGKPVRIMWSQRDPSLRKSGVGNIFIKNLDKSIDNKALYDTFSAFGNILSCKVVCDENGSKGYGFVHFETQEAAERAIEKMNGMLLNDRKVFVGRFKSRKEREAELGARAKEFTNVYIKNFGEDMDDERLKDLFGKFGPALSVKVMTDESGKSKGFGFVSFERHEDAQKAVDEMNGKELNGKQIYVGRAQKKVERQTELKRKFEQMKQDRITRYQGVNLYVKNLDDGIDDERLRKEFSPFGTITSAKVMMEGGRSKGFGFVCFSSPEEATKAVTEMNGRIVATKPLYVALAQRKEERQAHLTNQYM
Assay: FP; 50 mM HEPES, 5 mM EDTA, 250 mM KCl, 10 mM DTT, 0.5 mg/mL BSA, 0.05% Tween-20, yeast total RNA competitor
Conditions: label: Cy3 or 3' biotin
Experimental: Equilibrium dissociation constants were determined by florescence anisotropy measurements of either unmodified adenosine 12 nucleotide RNA or the Poly(A) SPOT-ON to recombinant human PABPC1 (residues 1-383). […] Measurements were recorded on a Tecan Spark multimode plate reader in triplicate. […]
assay_readout: pKd
// pKd here means minus log10 of the molar concentration (mol/L)

Qu. Which pKd is listed for AAAAAAAAAAAA (ssRNA, 2'-OMe at all riboses; PS at the 5'-most and 3'-most linkages) [Poly(A) SPOT-ON] ?
Ans. 6.52
